Origin of the recorded values: the Biogen ADME set (Fang et al. 2023)

Using intrinsic clearance, rat liver microsomes as the sorting value, the categories are bottom end = under 100 mL/min/kg, midrange = from 100 mL/min/kg up to 400 mL/min/kg, top end = 400 mL/min/kg and over

Would you please look over these solved cases?
> print(dat)
                                    compound    category
 1  CC(C)c1c(-c2ccccc2)[n+]([O-])c2c([n+]1[O-])CCC2  bottom end
 2       Cc1ccc(NC(=O)CN2C(=O)CN(C)C2=O)cc1C  bottom end
 3  CCc1c(C(=O)N2CC[C@@](O)(CC(C)C)[C@@H](Oc3ccc(F)cc3)C2)[nH]c2ccc(C)cc12     top end
 4                   Cc1nc(C)c(CNc2ncnn2C)s1  bottom end
 5  CC(C)Oc1ccc(CCNC(=O)N2CCC[C@H]2C(=O)N2CCCCC2)cc1     top end
 6  Cc1nc(CC2CCN(S(=O)(=O)c3c(C)noc3C)CC2)cc(NC2CCCC2)n1     top end
 7  CC1(C)Cc2cc(NC(=O)c3cnn4cccnc34)c(N3CCN(CC(F)F)CC3)nc2O1    midrange
 8  Cc1cc2nc(CCC(=O)N3CCC(c4ccc(C(=O)N(C)C)c(N)n4)CC3)[nH]c2cc1C    midrange
 9                 CCc1sc(N)nc1-c1ccc(OC)cc1     top end
10  COC1(c2nc(Cc3ccccc3)no2)CCN(Cc2cnc(C)o2)CC1    midrange

Incoming: Determine which band this compound sits in: Cc1noc(COc2cccnc2C)n1
Outgoing: bottom end

Incoming: Determine which band this compound sits in: COC(=O)[C@]12CCC(C)(C)CC1C1C(=O)C=C3[C@@]4(C)C=C(C#N)C(=O)C(C)(C)[C@@H]4CC[C@@]3(C)[C@]1(C)CC2 (some centres not stated)
Outgoing: midrange

Incoming: Determine which band this compound sits in: CN1CCCN(C(=O)Nc2cccc(OCC(F)F)n2)CC1
Outgoing: midrange

Incoming: Determine which band this compound sits in: Cc1ccc(-c2nnc([C@H]3CCN(Cc4cc5ccccc5o4)C3)o2)cc1
Outgoing: top end

Incoming: Determine which band this compound sits in: COc1cccc(CNC(=O)C2(C#N)CCOCC2)c1
Outgoing: bottom end

Incoming: Determine which band this compound sits in: O=C1NCC2(C/C=C/CCOc3ccccc31)CCN(C(=O)c1ccc3[nH]nnc3c1)CC2
Outgoing: midrange

Incoming: Determine which band this compound sits in: O=C(NCc1ccc(O)cc1)Nc1ccncc1F
Outgoing: bottom end

Incoming: Determine which band this compound sits in: CCc1c(O)cc(O)c(C(=O)c2ccc(OCCN3CCOCC3)c(OC)c2)c1CC(=O)N(CCOC)CCOC
Outgoing: midrange

Incoming: Determine which band this compound sits in: CN(c1ncccc1CNc1nc(Nc2ccc3c(c2)CC(=O)N3)ncc1C(F)(F)F)S(C)(=O)=O
Outgoing: bottom end

Incoming: Determine which band this compound sits in: CC(=O)Nc1ccc(CNCCOc2ccc(F)cc2F)cc1
Outgoing: midrange

Incoming: Determine which band this compound sits in: CC(=O)NC1CCC(NCCc2c(C)cccc2C)CC1 (configuration not stated)
Outgoing: top end

====

For each record, write down the corresponding intrinsic clearance, rat liver microsomes.
Answers are plain numbers, in mL/min/kg.

Would you be so kind as to report intrinsic clearance, rat liver microsomes for each listed record?
1. Cc1ccc(-c2nc(-c3ccncc3)n[nH]2)cc1
2. Cc1cc(C(=O)Nc2cccc3ncccc23)on1
3. O=S(=O)(Nc1cccc(-c2nc3ccccc3[nH]2)c1)c1ccc(Cl)cc1
4. CCCC(=O)N1CCC(c2cccc(C)n2)CC1
5. Cn1cc(-c2ccc3nnc(C(F)(F)c4ccc5ncccc5c4)n3n2)cn1

Outgoing:
1: 269; 2: 11.1; 3: 2940; 4: 443; 5: 59.2

====

For each record, write down the corresponding MDR1-MDCK efflux ratio.
Numbers only.

Would you be so kind as to report MDR1-MDCK efflux ratio for each listed record?
1. C[C@@H](NC(=O)N1CCC2(CCOCC2)CC1)c1ccc(F)cc1
2. COCCS(=O)(=O)N1CCC2(Cc3ccccc3C2)C1
3. CCc1cc(NS(C)(=O)=O)n(C)n1
4. C[C@@H](c1ccccc1)N(C)C(=O)NCCN(C)CCO
5. Cc1ccc2c(CC(=O)N(C)Cc3nnc4n3CCC4)coc2c1C

Outgoing:
1. 2.32
2. 0.583
3. 2.54
4. 18.4
5. 66.1

Would you be so kind as to report MDR1-MDCK efflux ratio for each listed record?
1. COc1ccc(CNCc2cccc3ccccc23)cc1
2. CC(=O)N1CCN(c2c(Cl)cccc2NC(=O)COc2ccc(C(C)C)cc2)CC1
3. NC(=O)C1CCN(C(=O)CCc2ccc(Cl)cc2)CC1
4. O=C(Nc1nc2cccc(-c3ccc(CN4CCS(=O)(=O)CC4)cc3)n2n1)C1CC1
5. CCc1ccccc1NC(=O)CCn1ccnc1-c1ccc2c(c1)OCO2

Outgoing:
0.45
2.13
6.24
136
22.1

Would you be so kind as to report MDR1-MDCK efflux ratio for each listed record?
1. c1ccn2cc(CSc3ccc(-n4cccn4)nn3)nc2c1
2. CCNC(=O)N1CCC2(CCc3ccccc3O2)CC1

Outgoing:
1. 0.732
2. 0.737

====

For each record, write down the corresponding intrinsic clearance, rat liver microsomes.
One number for each entry, in mL/min/kg.

> print(dat)
                                 cpd.smiles  recorded.result
1  Cc1ccc(C)c2c(O)cc(CN3CC(c4ccccn4)C3)nc12             1050

Would you be so kind as to report intrinsic clearance, rat liver microsomes for each listed record?
1. Cc1ccc(-n2cc(C(=O)NCCN(C)C)nn2)cc1C
2. CC(C)CN1C(=O)C(=O)N(Cc2ccccn2)C1=O
3. CN(C)c1ncc(CN2CCC(Cc3ccc(F)cc3)CC2)s1
4. CC(C)c1ccc(NC(=O)Cn2cnc3c2c(=O)n(C)c(=O)n3C)cc1
5. CCNC(=O)c1ccc(-c2cc(C)cc(OC)c2OC)nc1

Outgoing:
1: 189; 2: 28.4; 3: 2570; 4: 195; 5: 93.1

====

For each record, write down the corresponding intrinsic clearance, human liver microsomes.
One number for each entry, in mL/min/kg.

Example compounds with recorded intrinsic clearance, human liver microsomes:
> print(dat)
                                   compound  recorded.result
1  CC(=O)NC1(C(=O)N2CCCN(c3cccnn3)CC2)CCCCC1             7.73
2  CN(Cc1ccc(-c2ccc(Br)cc2)o1)C(=O)c1cnn(C)c1             10.5
3  Cc1noc(C2CCN(C(=O)C3(c4cccc(F)c4)CCC3)CC2)n1             54.1

Would you be so kind as to report intrinsic clearance, human liver microsomes for each listed record?
1. CCc1ccccc1NC(=O)c1cc(C)nc2onc(C)c12
2. Cc1noc(NCc2cccc(-c3cccnc3)c2)n1
3. CC1CCN(CC(=O)Nc2nc(-c3c[nH]c4ccccc34)cs2)CC1
4. N#CC1(CN2CCc3cc(-c4ccccc4)oc3C2)CC1
5. Cc1ccc(-n2ccnc2-c2ccoc2)c2cccnc12

Outgoing:
[51.8, 20.5, 37.9, 72.7, 55.1]

====

MEASURE NAME: intrinsic clearance, human liver microsomes (mL/min/kg)
Give bare numbers, in mL/min/kg.

Example compounds with recorded intrinsic clearance, human liver microsomes:
> print(dat)
                                   compound  units.text  recorded.result
1  Cc1nc(Cc2ccccc2)sc1C(=O)Nc1cccc(-c2ccn[nH]2)c1   mL/min/kg             30.4
2                Cc1cnc(CNCc2cccc3c2OCO3)s1   mL/min/kg               33
3       O=C(NCc1ccc2c(c1)OCCO2)c1sccc1C1CC1   mL/min/kg              147
4  Cc1nc(-c2ccccc2)c(C(=O)Nc2cc(Cl)cc(Cl)c2)s1   mL/min/kg             25.7
5  COc1cc(CN[C@@H]2CCC[C@H]2Cc2cc(C)no2)ccc1OC(C)C   mL/min/kg             66.8

Would you be so kind as to report intrinsic clearance, human liver microsomes for each listed record?
1. O=C(COCc1nc2ccccc2s1)N1CCC(n2c(=O)[nH]c3ccccc32)CC1
2. COCC1(CNS(=O)(=O)c2ccc3[nH]cnc3c2)CCC1
3. NC(=O)COc1ccccc1C(=O)Nc1cccc(-c2ccc3ccccc3c2)n1
4. O=C(CCc1cnn(-c2ccccc2)c1)N1CCC(n2c(=O)[nH]c3ccccc32)CC1

Outgoing:
1: 68.6; 2: 16.2; 3: 54.8; 4: 567

Would you be so kind as to report intrinsic clearance, human liver microsomes for each listed record?
1. Cc1cccc(NC(=O)c2ccc3ccccc3c2)n1
2. Cc1nc(C(C)C)sc1C(=O)Nc1nc(C(C)(C)C)cs1
3. O=C(c1cccc(CNc2ccc3nccnc3n2)c1)N1CCCCC1
4. CN(C[C@@H]1COCCO1)S(=O)(=O)Nc1ccc2ccc3ncc(-c4cnn(C)c4)cc3c(=O)c2c1
5. Cc1cc(C)nc(SCC(=O)N2c3ccccc3C(C)(c3ccc(Cl)cc3)CC2(C)C)n1 (stereo not drawn)

Outgoing:
[91.8, 27.8, 13.9, 44.3, 1040]
